Test system: ATΔslr1790 strain (AT strain in which slr1790 gene was disrupted)
Test: Test for inhibitory potency of protoporphyrinogen oxidase inhibitor, growth (turbidity) of ATΔslr1790 strain
Type: cell-based, Synechocystis PCC6803
Conditions: Synechocystis, 144 h; turbidity 6 days after start, 30° C., 1000 lux, BG11 liquid medium; pI50 = -log(concentration to inhibit 50% activity (M))
This section presents compounds with their documented IC50 values.
Result Type: IC50 (M)

c1cc[n+]2c(c1)-c1cccc[n+]1CC2 [diquat] :: 1e-05
O=C(O)c1cc(Oc2ccc(C(F)(F)F)cc2Cl)ccc1[N+](=O)[O-] [acifluorfen] :: 3.16e-05
CCOC(=O)COc1cc(-c2nn(C)c(OC(F)F)c2Cl)c(F)cc1Cl [pyraflufenethyl, pyraflufen-ethyl] :: 2.51e-07
